# pIC50 listing for each entry below
target: CYP3A4 (CYP3A) (Homo sapiens, UniProt P08684); test: in vitro; details: microsomes, pH 7.4
Sequence (P08684 2-503): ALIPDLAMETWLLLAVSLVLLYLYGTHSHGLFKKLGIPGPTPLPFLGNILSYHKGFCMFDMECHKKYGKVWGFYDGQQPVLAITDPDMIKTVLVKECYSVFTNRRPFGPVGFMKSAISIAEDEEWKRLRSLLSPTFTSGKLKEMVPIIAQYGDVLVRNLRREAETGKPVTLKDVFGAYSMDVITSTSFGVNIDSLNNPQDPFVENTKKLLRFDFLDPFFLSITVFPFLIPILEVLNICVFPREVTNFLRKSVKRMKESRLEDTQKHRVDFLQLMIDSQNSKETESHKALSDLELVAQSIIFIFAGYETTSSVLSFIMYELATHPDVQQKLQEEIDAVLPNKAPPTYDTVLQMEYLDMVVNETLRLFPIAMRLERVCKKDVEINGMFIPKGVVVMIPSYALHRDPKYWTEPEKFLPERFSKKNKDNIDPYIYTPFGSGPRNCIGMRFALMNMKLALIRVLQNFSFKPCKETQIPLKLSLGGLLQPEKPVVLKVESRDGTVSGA
pIC50 here: minus log base 10 of the concentration, concentration in moles per litre.

The examples below pair each entry with its known result.
-- ask # return pIC50 for CCO[C@H](C)C(=O)N[C@@H](Cc1ccc2c(c1)OCO2)[C@H](O)CN[C@H]1CC2(CCC2)Oc2ncc(CC(C)C)cc21 , test system: CYP3A4 (CYP3A) (Homo sapiens, UniProt P08684)
-- reply 7.00

-- ask Tell me pIC50 of COCC(=O)N[C@@H](Cc1ccc2c(c1)OCO2)[C@H]1CN([C@H]2CC3(CCC3)Oc3ncc([C@H](F)C(C)(C)C)cc32)C(=O)O1 when tested on CYP3A4 (CYP3A) (Homo sapiens, UniProt P08684).
-- reply 6.70

-- ask Jot down pIC50 (CYP3A4 (CYP3A) (Homo sapiens, UniProt P08684)) of CC(=O)N[C@@H](C[C@H]1CCOC1)[C@H](O)CN[C@H]1CC2(CCC2)Oc2ncc(CC(C)(C)C)cc21 .
-- reply 4.79

-- ask Give reported pIC50 for COCC(=O)N[C@@H](Cc1cccc(F)c1)[C@H](O)CN[C@H]1CC2(CCC2)Oc2c1cc(CC(C)(C)C)nc2-n1ccnc1 (CYP3A4 (CYP3A) (Homo sapiens, UniProt P08684))
-- reply 7.00

-- ask Fill in pIC50 for COCC(=O)N[C@@H](Cc1cc(F)cc(-c2ncc(C)s2)c1)[C@H](O)CN[C@H]1CC2(CCC2)Oc2ncc(CC(C)C)cc21 tested with CYP3A4 (CYP3A) (Homo sapiens, UniProt P08684).
-- reply 6.70

Continuing:
-- ask Give reported pIC50 for COCC(=O)N[C@@H](Cc1cc(F)cc(F)c1)[C@H](O)CN[C@H]1CC(C)(C)Oc2c1cc(Br)c1c2OCO1 (CYP3A4 (CYP3A) (Homo sapiens, UniProt P08684))
-- reply 6.70

-- ask Name the value of pIC50 reported for C#Cc1cccc(C[C@H](NC(=O)[C@@H](C)OC)[C@H](O)CN[C@H]2CC3(CCC3)Oc3ncc(CC(C)C)cc32)c1 when tested on CYP3A4 (CYP3A) (Homo sapiens, UniProt P08684).
-- reply 7.00

-- ask Quote pIC50 with test system CYP3A4 (CYP3A) (Homo sapiens, UniProt P08684) for COCC(=O)N[C@@H](Cc1cccc(-c2nccs2)c1)[C@H](O)CN[C@H]1CC2(CCC2)Oc2ncc(CC(C)C)cc21;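 note: inhibition of CYP3A-mediated 1-hydroxymidazolam formation after 10 min incubation with NADPH, quantified by HPLC MS relative to metabolite produced without test compound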
-- reply 6.60
